Where do these numbers come from? They come from patent US8987195B2.

target: HCV NS3/4A protease genotype 1b (Hepatitis C virus genotype 1b, UniProt P26663); assay: HCV NS3/4A protease time-resolved fluorescence (TRF) assay, Ki against genotype 1b; assay type: biochemical; details: IC50 [gt-1b] (nM), NS3/4A genotype 1b, enzyme 0.2 nM
Sequence (P26663 1027-1657): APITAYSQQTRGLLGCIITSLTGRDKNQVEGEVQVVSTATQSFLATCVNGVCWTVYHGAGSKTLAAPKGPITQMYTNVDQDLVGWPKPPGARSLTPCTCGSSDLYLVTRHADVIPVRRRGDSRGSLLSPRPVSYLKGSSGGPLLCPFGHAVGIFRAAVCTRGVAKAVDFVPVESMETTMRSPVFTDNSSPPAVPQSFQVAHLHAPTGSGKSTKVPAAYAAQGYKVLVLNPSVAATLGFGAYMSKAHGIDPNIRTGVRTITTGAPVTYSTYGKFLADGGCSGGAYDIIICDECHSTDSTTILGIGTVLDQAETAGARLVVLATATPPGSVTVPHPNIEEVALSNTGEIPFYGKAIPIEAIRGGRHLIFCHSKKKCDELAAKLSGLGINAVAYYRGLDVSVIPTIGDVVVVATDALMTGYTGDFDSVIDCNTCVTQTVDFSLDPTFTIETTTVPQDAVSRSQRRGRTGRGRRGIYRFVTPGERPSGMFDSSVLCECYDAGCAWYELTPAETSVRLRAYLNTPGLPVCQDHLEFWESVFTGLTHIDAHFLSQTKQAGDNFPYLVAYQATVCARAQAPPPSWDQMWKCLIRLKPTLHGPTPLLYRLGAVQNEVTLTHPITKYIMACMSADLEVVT
Sequence (P26663 1658-1711): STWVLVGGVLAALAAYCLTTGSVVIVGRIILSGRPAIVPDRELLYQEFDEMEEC
Give IC50 for every item shown.
Could you give the number and then its unit, please?

The cases that follow already have their IC50 on record.
Entry under test: CC1(OC(=O)N[C@H]2CCCCC/C=C\[C@@H]3C[C@@]3(C(=O)NS(=O)(=O)C3(C)CC3)NC(=O)[C@@H]3C[C@]4(CCc5c(c(C6CC6)nc6c(F)cccc56)O4)CN3C2=O)CC1 [Example 168] . Its IC50 was 0.013 nM

Entry under test: Cc1nc2ccccc2c2c1O[C@]1(CC2)C[C@H]2C(=O)N[C@]3(C(=O)NS(=O)(=O)C4(C)CC4)C[C@H]3/C=C\CCCCC[C@H](NC(=O)OCC(F)F)C(=O)N2C1 [Example 121] . Its IC50 was 0.025 nM

The record that follows has no IC50 shown yet.
Entry under test: CC(C)(C)OC(=O)N[C@H]1CCCCC/C=C\[C@@H]2C[C@@]2(C(=O)NS(=O)(=O)C2(C)CC2)NC(=O)[C@@H]2C[C@@]3(CCc4c(ccc5ccccc45)O3)CN2C1=O [Example 72] . Its IC50 was 0.665 nM
